Assay remarks: Cytotoxicity against human L02 cells assessed as reduction in cell viability measured after 24 hrs by MTT assay
Type: toxicity, cell-based
Measured IC50 at 24 h, listed per entry for reference.
Property measured: IC50 at 24 h

>>> result("CCOP(=O)(OCC)C(Nc1ccc(C)c(Nc2nccc(-c3cccnc3)n2)c1)c1scnc1C (stereo not drawn)")
"74.9 µM"
>>> result("CCOP(=O)(OCC)C(Nc1ccc(C)c(Nc2nccc(-c3cccnc3)n2)c1)c1ccc[nH]1 (stereo not drawn)")
"95.3 µM"
>>> result("CCOP(=O)(OCC)C(Nc1ccc(C)c(Nc2nccc(-c3cccnc3)n2)c1)c1ccn[nH]1 (stereo not drawn)")
"83.2 µM"

---

Test system: HL-60
Assay remarks: Anticancer activity against human HL-60 cells assessed as reduction in cell viability measured after 24 hrs by MTT assay
Format: functional, cell-based
Measurement context: HL-60, 24 h
pIC50: −log10 of the molar value.
Property measured: pIC50

>>> measured_number("CCOP(=O)(OCC)C(Nc1ccc(C)c(Nc2nccc(-c3cccnc3)n2)c1)c1ccsc1 (stereo not drawn)")
5.52
>>> measured_number("CCOP(=O)(OCC)C(Nc1ccc(C)c(Nc2nccc(-c3cccnc3)n2)c1)c1ccn[nH]1 (stereo not drawn)")
5.52
>>> measured_number("CCOP(=O)(OCC)C(Nc1ccc(C)c(Nc2nccc(-c3cccnc3)n2)c1)c1c[nH]c2ccccc12 (stereo not drawn)")
5.31
>>> measured_number("CCOP(=O)(OCC)C(Nc1ccc(C)c(Nc2nccc(-c3cccnc3)n2)c1)c1ccc(C)cc1 (stereo not drawn)")
5.17
>>> measured_number("CCOP(=O)(OCC)C(Nc1ccc(C)c(Nc2nccc(-c3cccnc3)n2)c1)c1scnc1C (stereo not drawn)")
5.63
>>> measured_number("CCOP(=O)(OCC)C(Nc1ccc(C)c(Nc2nccc(-c3cccnc3)n2)c1)c1ccncc1 (stereo not drawn)")
5.14
>>> measured_number("CCOP(=O)(OCC)C(Nc1ccc(C)c(Nc2nccc(-c3cccnc3)n2)c1)c1ccccc1 (stereo not drawn)")
5.04
>>> measured_number("CCOP(=O)(OCC)C(Nc1ccc(C)c(Nc2nccc(-c3cccnc3)n2)c1)c1ccc(Cl)cc1 (stereo not drawn)")
5.14
>>> measured_number("Cc1cc(Nc2cc(N3CCN(C)CC3)nc(Sc3ccc(NC(=O)C4CC4)cc3)n2)n[nH]1 [TOZASERTIB]")
5.73
>>> measured_number("CCOP(=O)(OCC)C(Nc1ccc(C)c(Nc2nccc(-c3cccnc3)n2)c1)c1ccc(OC)cc1 (stereo not drawn)")
5.10
>>> measured_number("CCOP(=O)(OCC)C(Nc1ccc(C)c(Nc2nccc(-c3cccnc3)n2)c1)c1ccc[nH]1 (stereo not drawn)")
5.68
>>> measured_number("CCOP(=O)(OCC)C(Nc1ccc(C)c(Nc2nccc(-c3cccnc3)n2)c1)N1CCOCC1 (stereo not drawn)")
5.12
>>> measured_number("CCOP(=O)(OCC)C(Nc1ccc(C)c(Nc2nccc(-c3cccnc3)n2)c1)c1ccc(N)cc1 (stereo not drawn)")
5.19
>>> measured_number("CCOP(=O)(OCC)C(Nc1ccc(C)c(Nc2nccc(-c3cccnc3)n2)c1)c1ccc(Cl)c(Cl)c1 (stereo not drawn)")
5.08
>>> measured_number("CCOP(=O)(OCC)C(Nc1ccc(C)c(Nc2nccc(-c3cccnc3)n2)c1)c1ccc(O)cc1 (stereo not drawn)")
5.22
>>> measured_number("CCOP(=O)(OCC)C(Nc1ccc(C)c(Nc2nccc(-c3cccnc3)n2)c1)c1ccc(F)cc1 (stereo not drawn)")
5.14
>>> measured_number("CCOP(=O)(OCC)C(Nc1ccc(C)c(Nc2nccc(-c3cccnc3)n2)c1)c1ccco1 (stereo not drawn)")
5.42
>>> measured_number("CCOP(=O)(OCC)C(Nc1ccc(C)c(Nc2nccc(-c3cccnc3)n2)c1)N1CCCCC1 (stereo not drawn)")
5.09
